Target: Human CXCR4 transfected HEK293 cells (Homo sapiens, UniProt P61073)
Sequence (P61073 whole entry): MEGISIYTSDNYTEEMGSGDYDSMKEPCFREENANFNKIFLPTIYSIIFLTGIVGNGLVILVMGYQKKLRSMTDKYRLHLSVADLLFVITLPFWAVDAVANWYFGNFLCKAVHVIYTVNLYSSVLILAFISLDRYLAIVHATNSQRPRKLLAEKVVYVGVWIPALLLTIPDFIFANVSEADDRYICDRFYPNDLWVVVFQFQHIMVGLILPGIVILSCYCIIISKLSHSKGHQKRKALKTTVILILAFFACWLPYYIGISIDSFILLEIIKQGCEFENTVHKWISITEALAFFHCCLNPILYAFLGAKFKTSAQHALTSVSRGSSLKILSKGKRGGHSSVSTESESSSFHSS
Assay: CXCR4 functional calcium assay (calcium flux FLIPR, antagonism of SDF1 response)
Conditions: CXCR4 functional activity, antagonism of SDF1 (EC50 concentration), read-out: CXCR4 fKi
pKi: −log10 of the molar value.
pKi values by entry

// solved cases for pKi follow
Cc1cc2nc(-c3cccc(N4CCCN(C5CCN(C(C)C)CC5)CC4)n3)[nH]c2cc1C :: 6.30 to 7.00
CC(C)N1CCC(N2CCCN(c3cccc(C(=O)N4CCc5ccccc5C4)n3)CC2)CC1 :: 6.30 to 7.00
CC(C)N1CCC(N2CCCN(c3cccc(C(=O)NCCCn4ccnc4)n3)CC2)CC1 :: 6.30 to 7.00
CCCNC(=O)c1cccc(N2CCCN(C3CCN(C(C)C)CC3)CC2)n1 :: 7.00 to 7.70

Inquiry: GET pKi | system: Human CXCR4 transfected HEK293 cells (Homo sapiens, UniProt P61073) | item: O=C(NC[C@H]1CCCO1)c1cccc(N2CCCN(C3CCN(Cc4ccccc4Cl)CC3)CC2)n1
Reply text: 7.00 to 7.70
